# Tested Target: hERG potassium channel (Homo sapiens)
# Construct: Eurofins Cerep SA (CRO)
# Sequence (Q12809 whole entry): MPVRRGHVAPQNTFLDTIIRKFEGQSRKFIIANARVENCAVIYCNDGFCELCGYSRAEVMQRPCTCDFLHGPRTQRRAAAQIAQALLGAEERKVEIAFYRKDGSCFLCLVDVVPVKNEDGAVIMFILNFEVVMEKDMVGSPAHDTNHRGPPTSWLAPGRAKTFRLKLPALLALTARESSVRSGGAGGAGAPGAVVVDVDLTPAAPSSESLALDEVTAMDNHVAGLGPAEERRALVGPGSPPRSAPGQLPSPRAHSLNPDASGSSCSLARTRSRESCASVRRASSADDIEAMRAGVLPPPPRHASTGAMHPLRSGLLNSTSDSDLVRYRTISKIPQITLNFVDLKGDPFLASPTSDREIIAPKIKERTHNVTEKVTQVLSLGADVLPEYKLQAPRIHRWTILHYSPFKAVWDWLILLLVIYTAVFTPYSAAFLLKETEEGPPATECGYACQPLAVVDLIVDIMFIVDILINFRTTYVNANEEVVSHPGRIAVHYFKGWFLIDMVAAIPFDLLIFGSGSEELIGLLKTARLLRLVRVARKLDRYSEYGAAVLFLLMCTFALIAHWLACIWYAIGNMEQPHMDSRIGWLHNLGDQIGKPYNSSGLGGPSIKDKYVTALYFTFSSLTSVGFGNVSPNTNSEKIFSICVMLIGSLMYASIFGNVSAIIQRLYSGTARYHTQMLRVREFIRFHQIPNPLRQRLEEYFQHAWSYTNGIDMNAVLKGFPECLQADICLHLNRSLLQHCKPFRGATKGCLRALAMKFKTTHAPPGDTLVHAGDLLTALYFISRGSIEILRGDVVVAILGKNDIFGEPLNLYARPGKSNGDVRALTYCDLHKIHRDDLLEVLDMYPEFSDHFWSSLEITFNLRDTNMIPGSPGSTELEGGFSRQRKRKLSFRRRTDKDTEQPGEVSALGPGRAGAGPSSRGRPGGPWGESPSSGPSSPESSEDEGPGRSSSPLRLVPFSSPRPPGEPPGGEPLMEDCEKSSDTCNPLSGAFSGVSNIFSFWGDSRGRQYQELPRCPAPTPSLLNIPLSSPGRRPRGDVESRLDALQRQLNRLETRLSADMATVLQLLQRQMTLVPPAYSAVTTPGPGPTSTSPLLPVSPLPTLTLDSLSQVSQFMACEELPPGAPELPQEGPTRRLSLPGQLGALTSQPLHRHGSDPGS
# Test Details: SafetyScreen44: hERG binding

{"Compound": "CC(=O)c1ccc(NC(=O)[C@@H](NC(=O)[C@@H](CC(C)C)P(=O)(O)O)C(C)C)cc1 [(R)‐30]", "Tested Target": "hERG potassium channel (Homo sapiens)", "Uom": "%", "inhibition at 100 µM": 79.4}

====

# Tested Target: TACE (ADAM17) (Homo sapiens)
# Construct: purchased Sigma-Aldrich (Saint Louis, MO)
# Sequence (P78536 215-824): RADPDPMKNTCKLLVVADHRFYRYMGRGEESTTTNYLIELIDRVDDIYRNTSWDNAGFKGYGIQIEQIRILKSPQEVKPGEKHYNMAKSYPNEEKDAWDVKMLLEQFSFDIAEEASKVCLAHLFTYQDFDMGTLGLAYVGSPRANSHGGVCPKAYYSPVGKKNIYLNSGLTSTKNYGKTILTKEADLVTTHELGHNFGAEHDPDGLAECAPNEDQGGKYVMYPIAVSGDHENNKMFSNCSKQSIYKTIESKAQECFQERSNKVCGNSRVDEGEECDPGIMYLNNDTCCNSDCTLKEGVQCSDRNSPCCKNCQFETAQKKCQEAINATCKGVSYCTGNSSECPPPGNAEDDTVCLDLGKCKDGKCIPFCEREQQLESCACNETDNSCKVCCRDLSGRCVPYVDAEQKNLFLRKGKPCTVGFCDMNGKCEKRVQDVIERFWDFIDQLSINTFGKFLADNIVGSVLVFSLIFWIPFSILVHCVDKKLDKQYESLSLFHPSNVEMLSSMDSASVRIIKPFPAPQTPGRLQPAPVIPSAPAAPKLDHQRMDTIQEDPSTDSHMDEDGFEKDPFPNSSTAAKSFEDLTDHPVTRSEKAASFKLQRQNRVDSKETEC
# Test Details: TACE (ADAM17) inhibition (off-target)
# Type: biochemical
# Condition Info: read-out: TACE (ADAM17) % inhibition at 100 µM

{"Compound": "CC(C)CC(C(=O)N[C@H](C(=O)Nc1ccc(Cl)c(Cl)c1)C(C)C)P(=O)(O)O (stereo partly shown)", "inhibition at 100 µM": "< 10%"}
{"Compound": "CC(C)CC(C(=O)N[C@H](C(=O)Nc1ccc(Cl)c(Cl)c1)C1CCCCC1)P(=O)(O)O (stereo partly shown)", "inhibition at 100 µM": "< 10%"}
{"Compound": "CC(C)C[C@H](C(=O)N[C@H](C(=O)Nc1ccc(-n2ccnc2)cc1)C(C)C)P(=O)(O)O [(R)‐36]", "inhibition at 100 µM": "< 10%"}
{"Compound": "CC(=O)c1ccc(NC(=O)[C@@H](NC(=O)C(CC(C)C)P(=O)(O)O)C(C)C)cc1 (stereo partly shown)", "inhibition at 100 µM": "13%"}
{"Compound": "CC(C)CC(C(=O)N[C@H](C(=O)Nc1ccc(Cl)c(Cl)c1)C1CCC1)P(=O)(O)O (stereo partly shown)", "inhibition at 100 µM": "< 10%"}
{"Compound": "CC(=O)c1ccc(NC(=O)[C@@H](NC(=O)[C@@H](CC(C)C)P(=O)(O)O)C(C)C)cc1 [(R)‐30]", "inhibition at 100 µM": "13%"}
{"Compound": "CC(C)CC(C(=O)N[C@H](C(=O)Nc1ccc(C(=O)C(F)(F)F)cc1)C(C)C)P(=O)(O)O (stereo partly shown)", "inhibition at 100 µM": "< 10%"}
